target: recombinant human IL-17AA (Homo sapiens, UniProt Q16552); experiment: IL-6 release from NHDF cells, IL-17AA plus TNF-α stimulation; format: cell-based; settings: NHDF cells, IL-17AA 30 pM + TNF-α 6 pM, 24 hours, IL-6 by ELISA; read-out: IL17AA + TNF IC50 IL-6
Sequence (Q16552 24-155): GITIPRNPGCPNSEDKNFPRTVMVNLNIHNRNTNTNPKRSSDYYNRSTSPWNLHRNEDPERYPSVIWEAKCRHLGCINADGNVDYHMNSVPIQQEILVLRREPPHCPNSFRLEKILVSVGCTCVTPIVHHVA
Measurement label: IC50 (µM)

CC(=O)N1CCn2c(ccc2C(=O)N[C@H](C(=O)Nc2ccc(-c3c(C)cc[n+]([O-])c3C)cc2F)C2CCCCCC2)C1 :: 0.0285
Cc1cc[n+]([O-])c(C)c1-c1ccc(NC(=O)C(NC(=O)c2conc2C)C(C)c2ccccc2Cl)cc1 (stereo not drawn) :: 0.264
CCn1nccc1C(=O)NC(C(=O)Nc1ccc(-c2c(Cl)cc[n+]([O-])c2C)cc1)C1CC2CC2C1 (single isomer, unassigned) [Example 145] :: 0.0235

----------
target: biotinylated human IL-17A / AF647-labeled human IL-17RA (Homo sapiens); assay: Human IL-17A×IL-17RA TR-FRET assay; type: binding; conditions: TR-FRET, biotinylated human IL-17A 5 nM, AF647-labeled human IL-17RA 30 nM; read-out: IL17AA FRET/ IL17Rawt IC50
Catalogue of IC50 values
Measurement label: IC50 (µM)

Cc1cc[n+]([O-])c(C)c1-c1ccc(NC(=O)C(NC(=O)c2ccc3n2CCN(C)C3)C2CCC(C)CC2)cc1 (centres unmarked) :: 0.111
Cc1cc[n+]([O-])c(C)c1-c1ccc(NC(=O)[C@@H](NC(=O)c2ccnn2C)C2CCCCCC2)cc1 :: 0.024
Cc1c(-c2ccc(NC(=O)[C@@H](NC(=O)c3ccnn3C)C3CCC(F)(F)CC3)cc2F)c(Cl)cc[n+]1[O-] :: 0.019
Cc1cc[n+]([O-])c(C)c1-c1ccc(NC(=O)[C@H](Cc2ccccc2Cl)NC(=O)c2conc2C)cc1 :: 0.017
Cc1cc[n+]([O-])c(C)c1-c1ccc(NC(=O)[C@@H](NC(=O)c2ccnn2C)[C@H]2CC=C(F)CC2)cc1 (single isomer, unassigned) [Example 12a] :: 0.112

----------
Target: biotinylated human IL-17A / AF647-labeled human IL-17RA (Homo sapiens)
Assay: Human IL-17A×IL-17RA TR-FRET assay
Assay type: binding
Conditions: TR-FRET, biotinylated human IL-17A 5 nM, AF647-labeled human IL-17RA 30 nM; read-out: IL17AA FRET/ IL17Rawt IC50
Experimental: Human IL-17A×IL-17RA TR-FRET Assay Each compound concentration is tested in duplicate. The final total assay volume is 10 μL. Each plate contains test compounds in columns 1-22 and controls in columns 23 and 24. The neutral control (NC) contains all the assay components, but DMSO instead of test compound. […] The fluorescence values for emission at 615 nm and 665 nm are loaded to the evaluation software Helios. […]
pIC50: −log10 of the molar value.
Measurement label: pIC50

Cc1c(-c2ccc(NC(=O)[C@@H](NC(=O)c3ccnn3C)C3CCCCC3)cc2F)c(Cl)cc[n+]1[O-] (single isomer, unassigned) [Example 2a] :: 7.31
CCn1nccc1C(=O)N[C@H](C(=O)Nc1ccc(-c2c(C(F)(F)F)cc[n+]([O-])c2C)cc1)C1CCC(F)(F)CC1 :: 7.09
CCn1nccc1C(=O)N[C@H](C(=O)Nc1ccc(-c2c(C(F)(F)F)cc[n+]([O-])c2C)cc1)[C@H]1CCCC(F)(F)C1 :: 7.03
Cc1c(-c2ccc(NC(=O)[C@@H](NC(=O)c3ccnn3C(C)C)C3CCCCCC3)cc2)c(Cl)cc[n+]1[O-] :: 7.92
Cc1nocc1C(=O)N[C@H](C(=O)Nc1ccc(-c2c(Cl)cc[n+]([O-])c2C)c(F)c1)C1CCCCC1 :: 7.62
Cc1cc[n+]([O-])c(C)c1-c1ccc(NC(=O)C(NC(=O)c2ccc3n2CCN(C)C3)C2CCC(C(F)(F)F)CC2)cc1 (stereo not drawn) :: 6.76

----------
molecular target: biotinylated human IL-17A / AF647-labeled human IL-17RA (Homo sapiens, UniProt Q16552); test: Human IL-17A×IL-17RA TR-FRET assay; format: binding; conditions: TR-FRET, biotinylated human IL-17A 5 nM, AF647-labeled human IL-17RA 30 nM; read-out: IL17AA FRET/ IL17Rawt IC50
Sequence (Q16552 24-155): as above
Field: class. Source value: IC50. Ranges: lower segment: < 70 nM; middle segment: ≥ 70 nM and < 100 nM; upper segment: ≥ 100 nM

Cc1c[n+]([O-])cc(C)c1-c1ccc(NC(=O)[C@@H](NC(=O)c2ccnn2C2CCC2)C2CCCCCC2)cc1 :: upper segment
Cc1c(-c2ccc(NC(=O)[C@@H](NC(=O)c3ccnn3C)C3CCCCC3)cc2F)c(Cl)cc[n+]1[O-] (single isomer, unassigned) [Example 2b] :: lower segment
Cc1c(-c2ccc(NC(=O)[C@@H](NC(=O)c3ccc4n3CCN(C)C4)C3CCCCCC3)cc2F)c(Cl)cc[n+]1[O-] :: upper segment
Cc1cc[n+]([O-])c(C)c1-c1ccc(NC(=O)[C@@H](NC(=O)c2conc2C)C2CCCCCC2)nc1 :: lower segment
CCn1nccc1C(=O)NC(C(=O)Nc1ccc(-c2c(Cl)cc[n+]([O-])c2C)cc1)C1CC2CC2C1 (stereo not drawn) :: middle segment
Cc1c(-c2ccc(NC(=O)[C@@H](NC(=O)c3ccnn3CCN(C)C)C3CCCCC3)cc2F)c(Cl)cc[n+]1[O-] :: upper segment
Cc1cc[n+]([O-])c(C)c1-c1ccc(NC(=O)[C@@H](NC(=O)c2ccnn2C)[C@H]2CC=C(F)CC2)cc1 (single isomer, unassigned) [Example 12b] :: upper segment
Cc1cc[n+]([O-])c(C)c1-c1ccc(NC(=O)[C@@H](NC(=O)c2conc2C)[C@@H]2CC=C(F)CC2)cc1 :: middle segment
Cc1cc[n+]([O-])c(F)c1-c1ccc(NC(=O)[C@@H](NC(=O)c2ccnn2C)C2CCCCC2)cc1 :: upper segment
COCc1nocc1C(=O)N[C@H](C(=O)Nc1ccc(-c2c(Cl)cc[n+]([O-])c2C)c(F)c1)C1CCCCC1 :: lower segment
CCn1nccc1C(=O)N[C@H](C(=O)Nc1ccc(-c2c(Cl)cc[n+]([O-])c2C)cc1)C1CCC(F)(F)CC1 (single isomer, unassigned) [Example 13a] :: lower segment
CCn1nccc1C(=O)N[C@H](C(=O)Nc1ccc(-c2c(C)cc[n+]([O-])c2C)cc1)C1CCCC1 :: upper segment
CCc1nocc1C(=O)N[C@H](C(=O)Nc1ccc(-c2c(C)cc[n+]([O-])c2C)cc1)C1CCC(F)(F)CC1 :: upper segment

----------
target: biotinylated human IL-17A / AF647-labeled human IL-17RA (Homo sapiens, UniProt Q16552); experiment: Human IL-17A×IL-17RA TR-FRET assay; type: binding; conditions: TR-FRET, biotinylated human IL-17A 5 nM, AF647-labeled human IL-17RA 30 nM; read-out: IL17AA FRET/ IL17Rawt IC50
Catalogue of IC50 values
Measurement label: IC50 (nM)

Cc1c(-c2ccc(NC(=O)[C@@H](NC(=O)c3ccnn3C)C(c3ccccc3)c3ccccc3)cc2)c(Cl)cc[n+]1[O-] :: 90
Cc1cc[n+]([O-])c(C)c1-c1ccc(NC(=O)[C@@H](NC(=O)c2ccnn2C)C2CCCCC2)cc1F :: 125
Cc1nocc1C(=O)NC(C(=O)Nc1ccc(-c2c(Cl)cc[n+]([O-])c2C)cc1)C1CCC(C(F)(F)F)CC1 (stereo not shown) :: 26
Cc1cc[n+]([O-])c(C)c1-c1ccc(NC(=O)[C@@H](NC(=O)c2conc2C)C2CCCC2)cc1 :: 396

----------
biological target: recombinant human IL-17AA (Homo sapiens, UniProt Q16552); assay: IL-6 release from NHDF cells, IL-17AA plus TNF-α stimulation; assay type: cell-based; conditions: IL17AA + TNF IC50 IL-6, NHDF cells, IL-17AA 30 pM plus TNF-α 6 pM, 24 hours, IL-6 by ELISA
pIC50: −log10 of the molar value.
Catalogue of pIC50 values
Measurement label: pIC50

CCn1nccc1C(=O)NC(C(=O)Nc1ccc(-c2c(C)cc[n+]([O-])c2C)cc1)C1CCC(C(F)(F)F)CC1 (stereo not drawn) :: 7.59
CCn1nccc1C(=O)NC(C(=O)Nc1ccc(-c2c(Cl)cc[n+]([O-])c2C)c(F)c1)C1CCC(F)(F)CC1 (stereo not drawn) :: 8.15
Cc1c(-c2ccc(NC(=O)C(NC(=O)c3ccnn3C)C3CCC(C)CC3)cc2F)c(Cl)cc[n+]1[O-] (stereo not drawn) :: 8.40

----------
Catalogue of IC50 values
target: recombinant human IL-17AA (Homo sapiens); experiment: IL-6 release from NHDF cells, IL-17AA plus TNF-α stimulation; assay type: cell-based; conditions: NHDF cells, IL-17AA 30 pM plus TNF-α 6 pM, 24 hours, IL-6 by ELISA; read-out: IL17AA + TNF IC50 IL-6
Measurement label: IC50 (nM)

CCc1nocc1C(=O)N[C@H](C(=O)Nc1ccc(-c2c(C(F)(F)F)cc[n+]([O-])c2C)cc1)C1CCCC1 :: 9
Cc1cc[n+]([O-])c(C)c1-c1ccc(NC(=O)[C@@H](NC(=O)c2ccnn2C)[C@H]2CC=C(F)CC2)cc1 (single isomer, unassigned) [Example 12b] :: 8
CCc1nocc1C(=O)N[C@H](C(=O)Nc1ccc(-c2c(C)cc[n+]([O-])c2C)cc1)C1CCC(F)(F)C1 (mixture of isomers) :: 232
CCc1nocc1C(=O)NC(C(=O)Nc1ccc(-c2c(C)cc[n+]([O-])c2C)cc1)C1CCC(C(F)(F)F)CC1 (stereo not shown) :: 4
